System: SupT1 cells
assay-summary: Alkaline comet assay in SupT1 cells
Type: cell-based
condition-label: no radiation; Tail DNA % and Olive Tail Moment
Peptide text beside a SMILES is read from it.
measure: DNA damage in non-irradiated SupT1 cells (comet assay)

compound	reported-value
CC(C)C[C@H](NC(=O)[C@@H](N)CCCNC(=N)N)C(=O)N[C@@H](Cc1ccc(O)cc1)C(=O)N[C@@H](Cc1ccc(O)cc1)C(=O)N[C@@H](Cc1ccccc1)C(=O)N[C@@H](Cc1c[nH]c2ccccc12)C(=O)N[C@@H](CC(=O)O)C(=O)O [Peptide A3F305-311] (H-RLYYFWD-OH)	did not induce breaks
CC(C)C[C@H](NC(=O)[C@H](CCCNC(=N)N)NC(=O)[C@H](C)N)C(=O)N[C@@H](Cc1ccc(O)cc1)C(=O)N[C@@H](Cc1ccc(O)cc1)C(=O)N[C@@H](Cc1ccccc1)C(=O)N[C@@H](Cc1c[nH]c2ccccc12)C(=O)N[C@@H](CC(=O)O)C(=O)N[C@H](C(=O)O)[C@@H](C)O [Peptide A3F304-312] (H-ARLYYFWDT-OH)	did not induce breaks
